Molecular target: T1, human Siglec-5 expressed on human primary cells (human, UniProt O15389 17-551)
T1 construct: Endogenous receptor on human primary monocytes, dendritic cells, macrophages and neutrophils; also called CD170
T1 sequence: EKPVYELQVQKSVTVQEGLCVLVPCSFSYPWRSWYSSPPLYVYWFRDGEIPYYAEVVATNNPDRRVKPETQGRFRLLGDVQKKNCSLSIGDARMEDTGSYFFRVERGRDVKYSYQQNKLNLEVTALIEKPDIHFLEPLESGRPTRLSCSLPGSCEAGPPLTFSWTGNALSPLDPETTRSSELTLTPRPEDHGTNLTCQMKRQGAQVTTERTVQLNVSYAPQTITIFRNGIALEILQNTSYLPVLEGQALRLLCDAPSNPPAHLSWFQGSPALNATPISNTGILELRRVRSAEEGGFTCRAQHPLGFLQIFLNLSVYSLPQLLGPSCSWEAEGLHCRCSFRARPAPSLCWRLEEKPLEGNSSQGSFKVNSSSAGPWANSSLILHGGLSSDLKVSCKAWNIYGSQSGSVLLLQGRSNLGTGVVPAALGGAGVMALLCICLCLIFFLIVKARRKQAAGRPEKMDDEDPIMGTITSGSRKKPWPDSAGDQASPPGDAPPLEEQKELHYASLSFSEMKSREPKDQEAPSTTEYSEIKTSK
Assay: flow cytometry, human primary macrophages, 10 ug/ml mAb
outcomeMeasure: MFI
Answer as a number with no unit attached.

[
  {
    "binder": "anti-Siglec-5 monoclonal antibody 8A1 (antibody, IgG1, V domains shown) VH: EIQLQQSGPELVKPGASVKVSCKASDYAFTSYNIYWVKQSHGKSLEWIGYIDPYNGGTSYNQTFKGKATLTVDKSSSTAYMHLNSLTSEDSAVYYCAMKVGYEAMDYWGQGTSVTVSS VL: DIVMTQSQKFMSTSVGDRVSVTCKASQNVGTYVAWYQQKPGQSPKALIYSASYRYSGVPDRFTGSGSGTDFTLNISNVQSEDLAEYFCQQFNSYPYTFGGGTKLEIK",
    "MFI": 457
  }
]

Looking for the measured MFI of anti-Siglec-5 monoclonal antibody 8C3 (antibody, IgG1, V domains shown) VH: QVQLQQSGGGLVKPGTSVKLSCKASGYIFTEYIIHWVKQRSGQGLEWIGWFYPGIISIKYNEKFKDKATLTADKSSSTVYMELSRLTSEDSAVYFCAGHEGYDGAMDYWGQGTSVTVSS VL: DVLMTQTPLSLPVSLGDQASISCRCSQSIVHSNGNTYLEWYLQKPGQSPKLLIYRVSNRFSGVPDRFSGSGSGTDFTLKISRVEAEDLGVYYCFQGSHVPWTFGGGTKLEIK , can you help?
490
